Examples of compounds with documented K ass follow.
Target: Coagulation factor X (Homo sapiens) (UniProt P00742)
Sequence (P00742 41-179 limits assumed): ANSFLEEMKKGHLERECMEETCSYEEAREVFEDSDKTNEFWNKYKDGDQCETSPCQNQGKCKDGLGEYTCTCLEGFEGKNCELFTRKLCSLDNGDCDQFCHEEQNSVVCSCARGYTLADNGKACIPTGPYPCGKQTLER
Sequence (P00742 235-488 limits assumed): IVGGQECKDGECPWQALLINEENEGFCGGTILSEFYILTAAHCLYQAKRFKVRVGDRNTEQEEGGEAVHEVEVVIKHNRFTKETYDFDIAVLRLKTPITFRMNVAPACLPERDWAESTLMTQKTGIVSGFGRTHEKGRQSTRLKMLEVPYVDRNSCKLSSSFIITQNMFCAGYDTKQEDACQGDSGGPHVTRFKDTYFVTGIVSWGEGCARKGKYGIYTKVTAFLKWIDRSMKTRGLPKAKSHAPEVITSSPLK
Experiment: Binding affinity for coagulation factor X as apparent association constant (Kass) derived from protease inhibition kinetics.

Example results:
compound | study_target | K ass
CC(C)(C)c1ccc(C(=O)Nc2ccccc2C(=O)Nc2ccc(Br)cc2)cc1 | Coagulation factor X (Homo sapiens) (UniProt P00742) | 220000 l M-1
COc1ccc(NC(=O)c2ccccc2NC(=O)c2ccc(C(F)(F)F)cc2)cc1 | Coagulation factor X (Homo sapiens) (UniProt P00742) | 90000 l M-1
COc1ccc(NC(=O)c2ccccc2NC(=O)c2ccc(C)cc2)cc1 | Coagulation factor X (Homo sapiens) (UniProt P00742) | 1.8e+06 l M-1
COc1ccc(NC(=O)c2cc(N)ccc2NC(=O)c2ccc(C(C)(C)C)cc2)cc1 | Coagulation factor X (Homo sapiens) (UniProt P00742) | 2.5e+06 l M-1
COc1ccc(NC(=O)c2ccccc2NC(=O)c2ccc(C(C)O)cc2)cc1 (stereo not given) | Coagulation factor X (Homo sapiens) (UniProt P00742) | 400000 l M-1

Query compound follows.
Form: compound = COc1ccc(NC(=O)c2ccccc2NC(=O)c2ccc(C(C)=O)cc2)cc1 ; K ass = 450000 l M-1

----------
Molecular target: Coagulation factor X (Homo sapiens) (UniProt P00742)
Assay: Binding affinity for coagulation factor X as apparent association constant (Kass) derived from protease inhibition kinetics.
property_measured: K ass

Form: compound = COc1ccc(NC(=O)c2ccccc2NC(=O)c2ccc(C(C)C)cc2)cc1 ; K ass = 7e+06 l M-1

Form: compound = COc1ccc(NC(=O)c2ccccc2NC(=O)c2ccc(C(C)(C)O)cc2)cc1 ; K ass = 480000 l M-1

Form: compound = COc1ccc(NC(=O)c2ccccc2NC(=O)c2ccc(Cl)cc2)cc1 ; K ass = 270000 l M-1

Form: compound = COc1ccc(NC(=O)c2cc(NC(=O)CCC(=O)O)ccc2NC(=O)c2ccc(N(C)C)cc2)cc1 ; K ass = 400000 l M-1

Form: compound = COc1ccc(NC(=O)c2ccc(NS(C)(=O)=O)cc2NC(=O)c2ccc(N(C)C)cc2)cc1 ; K ass = 8e+06 l M-1

Form: compound = COc1ccc(NC(=O)c2ccc(N)cc2NC(=O)c2ccc(N(C)C)cc2)cc1 ; K ass = 2.27e+07 l M-1

Form: compound = COc1ccc(NC(=O)c2ccc(NS(=O)(=O)c3ccccc3)cc2NC(=O)c2ccc(C(C)(C)C)cc2)cc1 ; K ass = 620000 l M-1

Form: compound = COc1ccc(NC(=O)c2cc([N+](=O)[O-])ccc2NC(=O)c2ccc(C(C)(C)C)cc2)cc1 ; K ass = 2.1e+06 l M-1

Form: compound = COc1ccc(NC(=O)c2cc(NS(C)(=O)=O)ccc2NC(=O)c2ccc(N(C)C)cc2)cc1 ; K ass = 5.79e+07 l M-1

----------
Examples of compounds with documented K ass follow.
Biological target: UniProt P00742
Assay: Binding affinity for coagulation factor X as apparent association constant (Kass) derived from protease inhibition kinetics.

Example results:
mol_smiles | property_measured | observed
COc1ccc(CCc2ccccc2NC(=O)c2ccc(OC)cc2)cc1 | K ass | < 1000 l M-1
COc1ccc(NC(=O)c2ccccc2NC(=O)c2ccc(C(N)=O)cc2)cc1 | K ass | 1.12e+06 l M-1
COc1ccc(NC(=O)c2ccc(NC(=O)CCC(=O)O)cc2NC(=O)c2ccc(C(C)(C)C)cc2)cc1 | K ass | 9.6e+06 l M-1
CC(C)(C)c1ccc(C(=O)Nc2ccccc2C(=O)Nc2ccc(Cl)cc2)cc1 | K ass | 490000 l M-1
COc1ccc(NC(=O)c2ccccc2C(=O)Nc2ccc(OC)cc2)cc1 | K ass | 70000 l M-1
Cc1ccc(NC(=O)c2ccccc2NC(=O)c2ccc(C(C)(C)C)cc2)cc1 | K ass | 3.4e+06 l M-1
COc1ccc(NC(=O)c2ccccc2NC(=O)c2ccc(C(C)(C)C)cc2)cc1 | K ass | 4.7e+06 l M-1
CC(C)(C)c1ccc(C(=O)Nc2ccccc2C(=O)Nc2ccccc2)cc1 | K ass | 460000 l M-1

Form: compound = COc1ccc(NC(=O)c2ccccc2NC(=O)c2cccc(Cl)c2)cc1 ; K ass = 30000 l M-1

Form: compound = COc1ccc(C(=O)Nc2ccccc2NC(=O)c2ccc(N(C)C)cc2)cc1 ; K ass = 1.87e+07 l M-1

----------
Biological target: Coagulation factor X (Homo sapiens) (UniProt P00742)
Assay: Binding affinity for coagulation factor X as apparent association constant (Kass) derived from protease inhibition kinetics.
Examples of molecules with documented K ass follow.

Example results:
mol_smiles | observed
COc1ccc(NC(=O)c2ccccc2NC(=O)c2cccc(C)c2)cc1 | 30000 l M-1
COc1ccc(NC(=O)c2ccccc2NC(=O)c2ccc(OC)cc2)cc1 | 1.2e+06 l M-1
COc1ccc(C(=O)Nc2ccccc2NC(=O)c2ccc(OC)cc2)cc1 | 1.3e+06 l M-1
COc1ccc(NC(=O)c2cc(NC(C)=O)ccc2NC(=O)c2ccc(C(C)(C)C)cc2)cc1 | 40000 l M-1

Query molecule follows.
Form: molecule = CCOc1ccc(C(=O)Nc2ccccc2C(=O)Nc2ccc(OC)cc2)cc1 ; K ass = 1e+06 l M-1

----------
Biological target: UniProt:P00742
Test: Binding affinity for coagulation factor X as apparent association constant (Kass) derived from protease inhibition kinetics.
property_measured: K ass

Example results:
mol_smiles | K ass
CC(C)(C)c1ccc(C(=O)Nc2ccccc2C(=O)Nc2ccc(C(F)(F)F)cc2)cc1 | 1000 l M-1
CC(C)(C)c1ccc(C(=O)Nc2ccccc2C(=O)Nc2ccc(F)cc2)cc1 | 110000 l M-1
COc1ccc(NC(=O)c2cc(NC(=O)CCC(=O)O)ccc2NC(=O)c2ccc(C(C)(C)C)cc2)cc1 | 150000 l M-1
COc1ccc(NC(=O)c2ccccc2NC(=O)c2ccc(Cl)c(Cl)c2)cc1 | 10000 l M-1
COc1ccc(OCc2ccccc2NC(=O)c2ccc(OC)cc2)cc1 | 30000 l M-1

Form: compound = COc1ccc(NC(=O)c2ccc([N+](=O)[O-])cc2NC(=O)c2ccc(C(C)(C)C)cc2)cc1 ; K ass = 80000 l M-1

Form: compound = COc1ccc(NC(=O)c2ccc(NC(=O)CCC(=O)O)cc2NC(=O)c2ccc(N(C)C)cc2)cc1 ; K ass = 9.6e+06 l M-1

Form: compound = CC(C)(C)c1ccc(C(=O)Nc2ccccc2C(=O)Nc2ccc(OC(F)(F)F)cc2)cc1 ; K ass = < 1000 l M-1

----------
Biological target: Coagulation factor X (Homo sapiens)
Assay: Binding affinity for coagulation factor X as apparent association constant (Kass) derived from protease inhibition kinetics.
property_measured: K ass

Form: compound = COc1ccc(NC(=O)c2ccccc2NC(=O)c2cccc(N(C)C)c2)cc1 ; K ass = 90000 l M-1

Form: compound = COc1ccc(NC(=O)c2cc(N)ccc2NC(=O)c2ccc(N(C)C)cc2)cc1 ; K ass = 7e+06 l M-1

Form: compound = COc1ccc(NC(=O)c2cc(NS(=O)(=O)c3ccccc3)ccc2NC(=O)c2ccc(C(C)(C)C)cc2)cc1 ; K ass = 4.9e+06 l M-1

Form: compound = COc1ccc(NC(=O)c2cc(NS(C)(=O)=O)ccc2NC(=O)c2ccc(C(C)(C)C)cc2)cc1 ; K ass = 1.35e+07 l M-1

----------
Target: Coagulation factor X (Homo sapiens) (UniProt P00742)
Test: Binding affinity for coagulation factor X as apparent association constant (Kass) derived from protease inhibition kinetics.
Examples of compounds with documented K ass follow.

mol_smiles | observed
CCc1ccc(NC(=O)c2ccccc2NC(=O)c2ccc(C(C)(C)C)cc2)cc1 | 1000 l M-1

Form: compound = COc1ccc(C(=O)Nc2ccccc2C(=O)Nc2ccc(C(C)(C)C)cc2)cc1 ; K ass = 30000 l M-1

Form: compound = COc1ccc(NC(=O)c2ccc(NC(C)=O)cc2NC(=O)c2ccc(C(C)(C)C)cc2)cc1 ; K ass = 2.2e+06 l M-1

Form: compound = COc1ccc(NC(=O)c2ccccc2NC(=O)c2ccc(N(C)C)cc2)cc1 ; K ass = 2.01e+07 l M-1

Form: compound = COc1ccc(NC(=O)c2ccc(NS(C)(=O)=O)cc2NC(=O)c2ccc(C(C)(C)C)cc2)cc1 ; K ass = 3.9e+06 l M-1

Form: compound = COc1ccc(/C=C/c2ccccc2NC(=O)c2ccc(OC)cc2)cc1 ; K ass = 30000 l M-1

Form: compound = COc1ccc(NC(=O)c2ccc(N)cc2NC(=O)c2ccc(C(C)(C)C)cc2)cc1 ; K ass = 6.3e+06 l M-1
